- Tested on: SK-MEL-2 melanoma
- run_description: NCI-60 one-dose screen, 48 h (100 = growth as untreated, 0 = no growth, -100 = all killed)
- experimental_context: 10 µM unless noted
- Protocol: Growth inhibition of the SK-MEL-2 human tumor cell line is measured as a screen for anti-cancer activity. Cells are grown in 96 well plates and exposed to the test compound for 48 hours. Compounds are tested at a single concentration, which is 10^-5 M for most compounds. The reported endpoint is percent growth (GI% or GIPRCNT), where numbers from 0 - 100% represent growth inhibition, and numbers from -100% - 0 represent cell death. For example, a value of 40 represents 60% growth inhibition. […]
About 83,000 compounds went through this panel and 20% of them were active in at least one assay; those are over-represented in the sample as a whole.
Entries and their measured growth follow.
Write the value in % as a bare number.

# growth of NS(=O)(=O)c1ccc(N2N=C(c3ccc(NC(=O)Nc4ccccc4)cc3)CC2c2ccc(Br)cc2)cc1 (centres undefined) = -75.8

# growth of NS(=O)(=O)c1cccc(Nc2nc(SCC(=O)c3ccc(F)cc3)nc3ccccc23)c1 = -47

# growth of Cc1cc(C2(c3cc(C)c(OCC(O)CNc4c(C)n(C)n(-c5ccccc5)c4=O)cc3C(C)C)OC(=O)c3ccccc32)c(C(C)C)cc1OCC(O)CNc1c(C)n(C)n(-c2ccccc2)c1=O (centres undefined) = -5.35

# growth of Cc1ccc2c(c1)/C(=C/C(=O)c1cc3ccccc3oc1=O)C(=O)N2 = 72.6

# growth of Cc1nc(Nc2ccccn2)sc1C1=NNC(c2ccccc2F)C1 (centres undefined) = 62.1

# growth of Cc1ccc(C(=O)Nc2cc(-c3ccccc3)cc(C(F)(F)F)c2)cc1C#Cc1cnc2cccnn12 = 58.7

# growth of O=C1N/C(=N\c2nccs2)S/C1=C\c1ccc([N+](=O)[O-])cc1 = 16.8

# growth of C=CCn1c(O)c(N=Nc2nc(-c3cc4ccccc4oc3=O)cs2)c2ccccc21 = 64.4

# growth of COc1ccc(-c2cc(-c3ccccc3)c(C#N)c(=O)[nH]2)cc1S(N)(=O)=O = 104

# growth of COc1ccc(SC2c3cc(OC)ccc3Oc3nc(N)c(C#N)c(N)c32)cc1 (centres undefined) = 94.5

# growth of COc1ccc(Nc2nnc(-c3c[nH]c4ccccc34)o2)cc1 = 92

# growth of COc1cc(/C=C/C(=O)c2ccc(S(=O)(=O)NCCNc3nc(N(C)C)nc(N4CCOCC4)n3)cc2)cc(OC)c1OC = 81.4

# growth of COc1ccc2[nH]c(O)c(N=Nc3nc(-c4ccc(C#N)cc4)cs3)c2c1 = 95.8

====

- System: PC-3 prostate
- run_description: NCI-60 one-dose screen, 48 h (100 = growth as untreated, 0 = no growth, -100 = all killed)
- experimental_context: 10 µM unless noted
Compounds without any hit were thinned out: in the full panel of roughly 83,000, 20% have a hit.
Please use rule met whenever growth is not below 40%, and rule not met whenever it is.

1) COc1ccc2c(c1)c(-c1cc(N)n3nc(-c4c[nH]c5ccccc45)cc3n1)cn2C
rule not met
2) Cc1ccccc1Nc1nnc(-c2c[nH]c3ccccc23)o1
rule not met
3) COc1ccc(Nc2ncnc3sc4c(c23)CCN(Cc2ccccc2)C4)cc1
rule met
4) COc1ccc(-c2cc(C)nc3[nH]c(=O)sc23)cc1
rule met

Below: the item to evaluate.
## Input Reported growth at or above 40%? COc1ccc(N=Nc2c(N)nn3c(N)c(C#N)c(-c4ccc(C)cc4)nc23)cc1
## Output rule not met

====

- System: MOLT-4 leukemia
- run_description: NCI-60 one-dose screen, 48 h (100 = growth as untreated, 0 = no growth, -100 = all killed)
- experimental_context: 10 µM unless noted
Compounds without any hit were thinned out: in the full panel of roughly 83,000, 20% have a hit.
Entries and their measured growth follow.
Write the value in % as a bare number.

Example cases with answers are listed next.
1. COc1ccc2ccccc2c1/C=C1\SC(=Nc2ccc(O)cc2)NC1=O
9.45
2. C=CCSc1nnc(-c2c(C)nc3sccn23)o1
116
3. COC(=O)c1c(C(=O)OC)c2ccc3c4ccccc4ccc3n2c1C(=O)OC
114
4. CC1=C(C(=O)Nc2ccccc2)C(c2ccc3ccccc3c2)n2c(nc3ccccc32)N1 (stereo not given)
12.7
5. Cc1ccc(C(=O)Nc2cc(-c3ccccc3)cc(C(F)(F)F)c2)cc1C#Cc1cnc2cccnn12
35.5

# growth of COc1cc(CNC(=O)C[C@H](C)CCC=C(C)C)ccc1OCc1cn(-c2ccccc2Cl)nn1 = 16.3

# growth of COc1ccc(-c2cc(-c3cc(C(C)C)c(O)cc3C)nn2-c2ccc(S(N)(=O)=O)cc2)cc1 = 14.7

# growth of O=C(N/N=C/c1c[nH]c2ccccc12)Nc1ccccc1Cl = 5.56

# growth of O=C(Cn1c(/C=C/c2ccc([N+](=O)[O-])cc2)nc2ccccc2c1=O)Nc1ccccc1 = 107

# growth of COc1ccc(N=Nc2c(N)nn3c(-c4ccc(F)cc4)ccnc23)cc1 = 85.5

====

- Tested on: LOX IMVI melanoma
- run_description: NCI-60 one-dose screen, 48 h (100 = growth as untreated, 0 = no growth, -100 = all killed)
- experimental_context: 10 µM unless noted
- Description: Growth inhibition of the LOX IMVI human tumor cell line is measured as a screen for anti-cancer activity. Cells are grown in 96 well plates and exposed to the test compound for 48 hours. Compounds are tested at a single concentration, which is 10^-5 M for most compounds. The reported endpoint is percent growth (GI% or GIPRCNT), where numbers from 0 - 100% represent growth inhibition, and numbers from -100% - 0 represent cell death. For example, a value of 40 represents 60% growth inhibition. […]
Compounds without any hit were thinned out: in the full panel of roughly 83,000, 20% have a hit.
Entries and their measured growth follow.
Write the value in % as a bare number.

1. COc1ccc2c(c1)N=c1c-2cc2c(O)[nH]c(=S)n2c1=O
32.6
2. C=CCn1c(O)c(N=Nc2nc(-c3cc4ccccc4oc3=O)cs2)c2ccccc21
70.1
3. COc1ccc2[nH]c(O)c(N=Nc3nc(-c4ccccc4)cs3)c2c1
14.3
4. C=CC(=O)N1CCN(c2ccc3nc4c(nc3c2C(F)(F)F)C(=O)c2ncccc2C4=O)CC1
-8.11
5. N#Cc1cc(-c2ccnc(Nc3ccc(N4CCN(C5COC5)CC4)cc3)n2)ccc1N1CCCC1
40

// assay LOX IMVI melanoma, entry CC[C@]12C=CCN3CC[C@@]4(c5ccc(OC)cc5N(C)[C@H]4[C@@](O)(C(=O)OC)[C@@H]1OC(=O)CCCC[P+](c1ccc(F)cc1)(c1ccc(F)cc1)c1ccc(F)cc1)[C@@H]32 , growth value = 25

// assay LOX IMVI melanoma, entry O=C(/C=C1\C(=O)N(Cc2ccccc2)c2ccccc21)c1cc2ccccc2oc1=O , growth value = 85.2

// assay LOX IMVI melanoma, entry N#Cc1c(-c2ccc(F)cc2)nc(SCc2ccc(F)cc2)nc1N1CCNCC1 , growth value = -100

// assay LOX IMVI melanoma, entry Nc1nnc(-c2cncc(Br)c2)c(-c2c[nH]c3ccc(Cl)cc23)n1 , growth value = 77.3

====

- Tested on: NCI-H23 lung
- run_description: NCI-60 one-dose screen, 48 h
- experimental_context: 10 µM unless noted
This is part of a sample that, as a whole, favours compounds with a hit. Of some 83,000 tested, about 20% had one in any assay. The source made the active and inactive calls. Rule for the calls: active = growth percent below 10; inactive = the rest.
Please answer using one outcome listed in active, inactive

Recorded results for 4 molecules are shown here.
1. OC1CCC(Cn2c(C(F)(F)F)cc3c(Cl)ncnc32)CC1 (centres undefined)
active
2. NS(=O)(=O)c1ccc(Nc2nc(SCC(=O)c3ccc(F)cc3)nc3ccccc23)cc1
inactive
3. COc1cc(/C=C/C(=O)c2cnn(-c3cc(=O)[nH]c4ccc(C)cc34)c2C)cc(OC)c1OC
active
4. O=S(=O)(c1nc(-c2ccc(Br)cc2)oc1-c1ccc(Cl)cc1)N1CCCC(O)C1 (centres undefined)
inactive

## Input What classification did Cn1cc(-c2cc(N)n3nc(-c4c[nH]c5ccc(Cl)cc45)cc3n2)c2cccnc21 end up with in this test?
## Output active

## Input What classification did Cc1ccc(C(=O)Nc2cc(-n3ccnc3C)cc(C(F)(F)F)c2)cc1C#Cc1cnc2cccnn12 end up with in this test?
## Output active

## Input What classification did COc1ccccc1NC(=O)N/N=C/c1c[nH]c2ccccc12 end up with in this test?
## Output active

## Input What classification did FC(F)(F)c1cc2c(Cl)ncnc2n1CCN1CCCCC1 end up with in this test?
## Output inactive

## Input What classification did Cc1ccc(C2CC(c3ccc(NC(=O)Nc4ccccc4)cc3)=NN2c2ccc(S(N)(=O)=O)cc2)cc1 (centres undefined) end up with in this test?
## Output active
